Measured values drawn from paper PMC12014896 for this set.

Documented pKd across a set of binders
# TGT: SARS-CoV-2 spike RBD (Wuhan-Hu-1) (Severe acute respiratory syndrome …, UniProt P0DTC2)
# PROTOCOL SUMMARY: SPR
Friendly reminder that pKd comes from taking -log10 of the concentration in mol/L.

# return recorded pKd for input COVIC-150 (antibody, V domains shown) VH: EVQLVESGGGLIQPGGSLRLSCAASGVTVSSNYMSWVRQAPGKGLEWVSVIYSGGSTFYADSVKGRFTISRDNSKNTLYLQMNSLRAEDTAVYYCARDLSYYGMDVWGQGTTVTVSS VL: DIQLTQSPSFLSASVGDRVTITCWASQGISSYLAWYQQKPGKAPKLLIYAASTLQSGVPSKFSGSGSGTEFTLTISSLQPEDFATYYCQQLNSYPSSFGQGTKLEIKR
6.85

More entries:
Provide pKd value for the following binder: COVIC-391 (antibody, V domains shown) VH: QVQLVQSGAEVKKPGSSVKVSCKASGGTFSSYVINWVRQAPGQGLEWMGGIIPTLGTTNYAQKFQGRVTITADKSTSTAYMELSSLRSEDTAVYYCARAGGYSGSGSNYYMDVWGKGTTVTVSS VL: QSVLTQPPSVSGAPGQRVTISCTGSSSNIGAGYDVHWYQQLPGTAPKLLIYANNNRPSGVPDRFSGSNSGTSASLAITGLQAEDEADYYCQSYDSSLSDSVFGGGTKLTVL
10.70
